TARGET_OR_TEST_SYSTEM: RPS10 (Homo sapiens)
Construct: made in house; host or cells: E. coli BL-21
Assay type: binding
TEST_SETTINGS: 1Ai conc. 32 uM
PROPERTY_MEASURED: RPS10 fluorescence ratio to control
One number for each entry.

Known results for molecules:
O=c1cc(CN2CCOCC2)occ1OCCCCCSc1ccnc2cc(C(F)(F)F)ccc12 [1Ai-5730] ... 1.212
Cc1ccc(C(=O)c2cc(O)c(O)c([N+](=O)[O-])c2)cc1 [1Ai-5576] ... 0.4065
O=C(CSc1nc(-c2ccccc2)cn1-c1ccccc1)NC(=O)Nc1ccccc1 [1Ai-2383] ... 0.02728
Cc1ccc(C)n1-c1cc([N+](=O)[O-])ccc1N1CCN(C(=O)c2ccccc2)CC1 [1Ai-9008] ... 1.009
Cc1cc(-n2c(C)cc(-c3csc(N)n3)c2C)no1 [1Ai-6464] ... 0.5591
CCOC(=O)c1ccsc1NC(=O)CN1C(=O)NC(C)(c2cccc3ccccc23)C1=O (centres unmarked) [1Ai-1861] ... 0.08052

For each of the molecules below, note its RPS10 fluorescence ratio to control.
1. CN(C)CC1CCn2cc(c3ccccc32)C2=C(C(=O)NC2=O)c2cn(c3ccccc23)CCO1 (centres unmarked) [1Ai-5662]
2. Oc1cc(Cl)ccc1Oc1ccc(Cl)cc1Cl [1Ai-6248]
3. COc1ccc(C=C2CSc3ccc(Cl)cc3C2=O)cc1O [1Ai-5175]
4. COc1cccc(Nc2nc(-c3ccc(NC(C)=O)cc3)c(C)s2)c1 [1Ai-1869]

1. 0.6137
2. 0.7362
3. 0.1533
4. 0.2785

RPS10 fluorescence ratio to control for Cn1c(=O)c2ccccc2n2c(CNC(c3ccc4c(c3)CCC4)c3cccs3)nnc12 (centres unmarked) [1Ai-7688] ?
0.0755

----------
Entries below carry reported GFP reporter ratio nsp1/gfp, rep 1 on NSP1 (Severe acute respiratory syndrome coronavirus 2).
Give bare numbers.

CCOc1cc(C(=O)Nc2ccc(Cl)c(-c3nc4ccccc4[nH]3)c2)cc(OCC)c1OCC [1Ai-5677] ... 0.572
Oc1cc(Cl)ccc1Oc1ccc(Cl)cc1Cl [1Ai-6248] ... 0.4445
Cc1ccc(C(=O)c2cc(O)c(O)c([N+](=O)[O-])c2)cc1 [1Ai-5576] ... 0.4237
COc1cccc(Nc2nc(-c3ccc(NC(C)=O)cc3)c(C)s2)c1 [1Ai-1869] ... 0.4212

For each of the molecules below, note its GFP reporter ratio nsp1/gfp, rep 1.
1. COc1ccc2oc(C(=O)OC(C)C(=O)Nc3sccc3C(N)=O)c(C)c2c1 (stereo not drawn) [1Ai-3044]
2. COc1ccc(CN(Cc2nn3c(=O)cc(C)nc3s2)C(C)Cc2cccs2)cc1 (stereo not drawn) [1Ai-5751]

0.4548
0.4426

For each of the molecules below, note its GFP reporter ratio nsp1/gfp, rep 1.
1. CN(C)CC1CCn2cc(c3ccccc32)C2=C(C(=O)NC2=O)c2cn(c3ccccc23)CCO1 (stereo not drawn) [1Ai-5662]
2. Cn1c(=O)c2ccccc2n2c(CNC(c3ccc4c(c3)CCC4)c3cccs3)nnc12 (stereo not drawn) [1Ai-7688]

[0.4084, 0.4413]

For each of the molecules below, note its GFP reporter ratio nsp1/gfp, rep 1.
1. O=C(COc1ccccc1[N+](=O)[O-])NCc1ccc(-c2ccc(Br)cc2)o1 [1Ai-4700]
2. CCOC(=O)c1ccsc1NC(=O)CN1C(=O)NC(C)(c2cccc3ccccc23)C1=O (stereo not drawn) [1Ai-1861]
3. CN1CCN(S(=O)(=O)c2ccc(N3Cc4cc5c(cc4C4(CCCC4)C3)OCCO5)nc2)CC1 [1Ai-3564]
4. O=C(CSc1nc(-c2ccccc2)cn1-c1ccccc1)NC(=O)Nc1ccccc1 [1Ai-2383]
5. O=C(C=Cc1ccc(Cl)s1)Nc1cccc2ncccc12 [1Ai-4860]
6. Cc1ccc(C)n1-c1cc([N+](=O)[O-])ccc1N1CCN(C(=O)c2ccccc2)CC1 [1Ai-9008]
7. Cc1cc(-n2c(C)cc(-c3csc(N)n3)c2C)no1 [1Ai-6464]

1: 0.4284; 2: 0.5997; 3: 0.5007; 4: 0.4187; 5: 0.428; 6: 0.4454; 7: 0.5623
